target_or_system: Transient receptor potential cation channel subfamily V member 1 (Homo sapiens)
Sequence (Q8NER1 whole entry): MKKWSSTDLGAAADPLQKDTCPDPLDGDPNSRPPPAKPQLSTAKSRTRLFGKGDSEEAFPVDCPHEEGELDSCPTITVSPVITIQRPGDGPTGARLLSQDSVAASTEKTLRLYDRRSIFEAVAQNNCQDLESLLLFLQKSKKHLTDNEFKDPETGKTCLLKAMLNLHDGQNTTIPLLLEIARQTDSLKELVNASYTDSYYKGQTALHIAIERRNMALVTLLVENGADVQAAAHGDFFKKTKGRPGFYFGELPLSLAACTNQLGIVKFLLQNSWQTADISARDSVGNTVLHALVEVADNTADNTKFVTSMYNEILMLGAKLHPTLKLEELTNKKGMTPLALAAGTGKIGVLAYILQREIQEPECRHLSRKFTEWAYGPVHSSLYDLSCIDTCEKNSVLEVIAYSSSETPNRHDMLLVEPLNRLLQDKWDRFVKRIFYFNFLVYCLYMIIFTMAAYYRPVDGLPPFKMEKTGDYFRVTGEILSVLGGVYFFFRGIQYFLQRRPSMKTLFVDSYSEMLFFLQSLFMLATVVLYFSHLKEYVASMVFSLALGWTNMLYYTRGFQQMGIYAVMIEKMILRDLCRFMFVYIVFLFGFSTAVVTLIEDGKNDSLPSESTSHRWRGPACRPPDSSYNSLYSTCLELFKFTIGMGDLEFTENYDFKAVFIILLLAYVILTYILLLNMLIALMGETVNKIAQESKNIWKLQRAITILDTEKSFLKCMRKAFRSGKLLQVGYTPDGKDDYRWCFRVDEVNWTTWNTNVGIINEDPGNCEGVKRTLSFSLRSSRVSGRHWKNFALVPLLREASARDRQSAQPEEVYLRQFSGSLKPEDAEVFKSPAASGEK
test_name: Displacement of [3H]RTX from human TRPV1 receptor expressed in CHO cells after 60 mins by scintillation counting
Format: cell-based
reported_endpoint: Ki

// below: answered compounds
C[C@@H](C(=O)NCc1ccc(C(C)(C)C)cc1)c1ccc(NS(C)(=O)=O)c(F)c1	2590 nM
C[C@H](C(=O)NCc1ccc(C(C)(C)C)cc1)c1ccc(NS(C)(=O)=O)c(F)c1	15.8 nM

Input: Give its Ki value. Item: CC(C(=O)NCc1ccc(C(C)(C)C)cc1)c1ccc(NS(C)(=O)=O)c(F)c1 (racemic)
Output: 89 nM

====

target_or_system: UniProt:Q8NER1
test_name: Antagonist activity at human TRPV1 receptor expressed in CHO cells assessed as decrease in capsaicin-induced intracellular 45Ca2+ uptake after 1 hr by […] analysis
Assay type: functional, cell-based
Measured pKi by item
Interpret pKi as the negative base-10 log of the concentration measured in mol/L.

Input: Give its pKi value. Item: C[C@H](C(=O)NCc1ccc(C(C)(C)C)cc1)c1ccc(NS(C)(=O)=O)c(F)c1
Output: 9.31

Input: Entry to check: C[C@@H](C(=O)NCc1ccc(C(C)(C)C)cc1)c1ccc(NS(C)(=O)=O)c(F)c1
Output: 6.66

Input: Entry to check: CC(C(=O)NCc1ccc(C(C)(C)C)cc1)c1ccc(NS(C)(=O)=O)c(F)c1 (racemic)
Output: 8.29

====

target_or_system: Transient receptor potential cation channel subfamily V member 1 (Rattus norvegicus)
test_name: Antagonist activity at rat TRPV1 receptor expressed in CHO cells assessed as decrease in capsaicin-induced intracellular 45Ca2+ uptake after 1 hr by […] analysis relative to untreated control
Assay type: functional, cell-based
Measured Efficacy by item
Response body: numeric value in %, unit text excluded.

// below: answered compounds
CC(C(=O)NCc1ccc(C(C)(C)C)cc1)c1ccc(NS(C)(=O)=O)c(N2CCN(C(=O)OC(C)(C)C)CC2)c1 (centres undefined)	13
CC(C(=O)NCc1ccc(C(C)(C)C)cc1)c1ccc(NS(C)(=O)=O)c(C(=O)OC(C)(C)C)c1 (centres undefined)	16
CC(C(=O)NCc1ccc(C(C)(C)C)cc1)c1ccc(NS(C)(=O)=O)c(C(=O)NCc2ccccc2)c1 (centres undefined)	23

Could you now consider this next compound?
Input: Give its Efficacy value. Item: COc1cc(CNC(=S)NCc2ccc(C(C)(C)C)cc2)ccc1NS(C)(=O)=O
Output: 84

====

target_or_system: Transient receptor potential cation channel subfamily V member 1 (Homo sapiens)
test_name: Antagonist activity at human TRPV1 receptor expressed in CHO cells assessed as decrease in pH-induced intracellular 45Ca2+ uptake after 1 hr by […] analysis
Format: functional, cell-based
reported_endpoint: Ki (nM)
Response body: numeric value in nM, unit text excluded.

// below: answered compounds
CC(C(=O)NCc1ccc(C(C)(C)C)cc1)c1ccc(NS(C)(=O)=O)c(F)c1 (racemic)	12.7
C[C@H](C(=O)NCc1ccc(C(C)(C)C)cc1)c1ccc(NS(C)(=O)=O)c(F)c1	8.3

Could you now consider this next compound?
Input: Provide value of Ki for this record tested with Transient receptor potential cation channel subfamily V member 1 (Homo sapiens): C[C@@H](C(=O)NCc1ccc(C(C)(C)C)cc1)c1ccc(NS(C)(=O)=O)c(F)c1
Output: 440
